Measurement target: T1, DLG3_1, Q92796
T1 sequence (Q92796 125-227, limits assumed, looked up): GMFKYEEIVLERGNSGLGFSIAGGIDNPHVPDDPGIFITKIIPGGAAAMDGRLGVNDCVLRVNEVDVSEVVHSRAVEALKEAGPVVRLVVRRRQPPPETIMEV
Assay comment: holdup assay
Set-up: key: below the threshold = too weak to quantify, mostly under pKd 3.1 to 4
Cond: plain residues with an end cap or a label only (N-terminal biotin on a linker: ado-ado)
Endpoint: pKd

Below, 5 binders whose answers are already recorded.
[
  {
    "Binder": "DDENIRTSDV [PLEKHA2, Q9HB19]",
    "Recorded value": "below the threshold"
  },
  {
    "Binder": "KSGKQTMLVV [TRIM29, Q14134]",
    "Recorded value": 3.63
  },
  {
    "Binder": "LKVPPEERLI [CRB2, Q5IJ48]",
    "Recorded value": "below the threshold"
  },
  {
    "Binder": "PPYRHRNTVV [ERBB4, Q15303]",
    "Recorded value": 4.21
  },
  {
    "Binder": "LRSPRTPSEV [OR10G3, Q8NGC4]",
    "Recorded value": "below the threshold"
  }
]

Q. Please look up its pKd: LPHGHSTTRV [NLGN4X, Q8N0W4]
A. below the threshold
